molecular target: UniProt P08581; test: Inhibition of c-Met kinase phosphorylation in MKN-45 cells (cell based ELISA); parameters: endogenous in cells; host or cells: MKN-45; details: 1 h
Sequence (P08581 25-1390): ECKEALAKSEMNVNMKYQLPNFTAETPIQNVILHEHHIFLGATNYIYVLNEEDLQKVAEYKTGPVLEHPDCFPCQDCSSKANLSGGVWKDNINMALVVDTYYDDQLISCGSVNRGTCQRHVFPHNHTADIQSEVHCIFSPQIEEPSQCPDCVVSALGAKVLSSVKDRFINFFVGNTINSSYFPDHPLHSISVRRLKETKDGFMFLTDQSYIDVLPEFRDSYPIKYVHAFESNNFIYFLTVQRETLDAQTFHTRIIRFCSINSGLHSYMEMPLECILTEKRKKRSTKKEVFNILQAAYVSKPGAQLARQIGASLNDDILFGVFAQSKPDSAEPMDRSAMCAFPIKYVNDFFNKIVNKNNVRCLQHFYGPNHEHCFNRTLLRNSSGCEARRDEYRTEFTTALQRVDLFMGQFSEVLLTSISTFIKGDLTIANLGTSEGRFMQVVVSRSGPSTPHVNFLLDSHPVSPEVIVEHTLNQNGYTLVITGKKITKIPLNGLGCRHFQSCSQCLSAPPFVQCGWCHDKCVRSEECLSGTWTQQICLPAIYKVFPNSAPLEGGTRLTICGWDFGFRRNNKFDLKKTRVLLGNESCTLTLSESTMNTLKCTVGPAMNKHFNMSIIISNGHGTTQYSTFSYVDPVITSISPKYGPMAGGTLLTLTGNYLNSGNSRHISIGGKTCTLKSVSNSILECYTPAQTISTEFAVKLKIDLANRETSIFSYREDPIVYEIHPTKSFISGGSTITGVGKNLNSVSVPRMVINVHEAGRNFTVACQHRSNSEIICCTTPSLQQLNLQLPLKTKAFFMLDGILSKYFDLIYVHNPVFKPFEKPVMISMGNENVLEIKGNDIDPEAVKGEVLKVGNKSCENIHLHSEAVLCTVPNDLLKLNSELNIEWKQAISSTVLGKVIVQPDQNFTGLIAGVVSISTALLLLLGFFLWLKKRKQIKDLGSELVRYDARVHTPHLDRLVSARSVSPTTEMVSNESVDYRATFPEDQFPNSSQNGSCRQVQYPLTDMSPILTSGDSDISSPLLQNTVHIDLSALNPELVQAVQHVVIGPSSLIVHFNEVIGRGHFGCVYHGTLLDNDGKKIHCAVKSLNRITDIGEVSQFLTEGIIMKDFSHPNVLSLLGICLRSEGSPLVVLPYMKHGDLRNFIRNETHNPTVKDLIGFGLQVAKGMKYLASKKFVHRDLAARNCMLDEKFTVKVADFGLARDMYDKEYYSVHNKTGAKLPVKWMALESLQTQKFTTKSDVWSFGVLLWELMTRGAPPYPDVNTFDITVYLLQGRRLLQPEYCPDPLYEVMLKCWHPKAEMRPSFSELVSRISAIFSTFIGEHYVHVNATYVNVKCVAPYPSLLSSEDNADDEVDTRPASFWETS
Field: IC50. Provide a value for each of the compounds that follow.

Request: Would you mind telling me what IC50 value was observed for O=C(NC1CC1)c1ccc(-c2ccc3nnn(Cc4ccc5ncccc5c4)c3n2)cc1F [Ex 46] ?
Result: 50 to 150 nM

Request: Query (compound): OCCn1cc(-c2ccc3nnn(Cc4ccc5ncccc5c4)c3n2)cn1 [Ex 146] ; field requested: IC50
Result: 50 to 150 nM

Request: Can you share its IC50? I mean this compound: NC(=O)c1c(F)cc(-c2ccc3nnn(Cc4ccc5ncccc5c4)c3n2)cc1F [Ex 130]
Result: ≤ 50 nM

Request: Any idea what its IC50 is? The compound is CCNC(=O)c1ccc(-c2ccc3nnn(Cc4ccc5ncccc5c4)c3n2)cc1F [Ex43]
Result: 50 to 150 nM

Request: Entry OCc1ccc(-c2ccc3nnn(Cc4ccc5ncccc5c4)c3n2)cc1F [Ex 16] has what IC50?
Result: ≤ 50 nM
